Provenance of the data: patent US7388016B2

# targetOrTestSystem: PDK-1 (Homo sapiens, UniProt O15530)
# Sequence (O15530 whole entry): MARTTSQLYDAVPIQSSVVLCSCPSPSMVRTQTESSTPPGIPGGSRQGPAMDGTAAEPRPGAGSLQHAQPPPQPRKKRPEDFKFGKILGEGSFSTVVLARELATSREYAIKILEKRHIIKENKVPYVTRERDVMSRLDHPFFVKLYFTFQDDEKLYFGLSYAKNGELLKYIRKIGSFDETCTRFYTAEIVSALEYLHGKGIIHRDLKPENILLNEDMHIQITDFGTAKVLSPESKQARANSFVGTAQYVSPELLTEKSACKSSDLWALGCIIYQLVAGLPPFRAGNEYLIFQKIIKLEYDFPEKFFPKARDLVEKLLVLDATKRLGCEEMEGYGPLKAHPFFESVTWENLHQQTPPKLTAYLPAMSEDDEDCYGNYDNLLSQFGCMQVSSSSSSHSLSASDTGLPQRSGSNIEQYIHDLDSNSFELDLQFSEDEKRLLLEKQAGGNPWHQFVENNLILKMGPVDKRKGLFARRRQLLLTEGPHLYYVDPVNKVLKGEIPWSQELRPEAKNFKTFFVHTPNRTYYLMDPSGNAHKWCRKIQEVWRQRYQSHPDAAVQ
Quick reference: IC50 of the listed items.
parameter: IC50 (nM)

>  <givenSmiles>
COc1cc2c(cc1OCCC1CC1)ncc1c(N)nc3c(C)c(N)ccc3c12

>  <targetOrTestSystem>
PDK-1 (Homo sapiens, UniProt O15530)

>  <assayResult>
212

$$$$
>  <givenSmiles>
COc1cc2c(cc1OCCN1CCCCC1)ncc1c(N)nc3c(C)c(N)ccc3c12

>  <targetOrTestSystem>
PDK-1 (Homo sapiens, UniProt O15530)

>  <assayResult>
324

$$$$
>  <givenSmiles>
COc1cc2c(cc1OCCCN1CCCC1=O)ncc1c(N)nc3c(C)c(N)ccc3c12

>  <targetOrTestSystem>
PDK-1 (Homo sapiens, UniProt O15530)

>  <assayResult>
111

$$$$
>  <givenSmiles>
COc1cc2c(cc1OCC1CCN(C)CC1)ncc1c(N)nc3c(C)c(N)ccc3c12

>  <targetOrTestSystem>
PDK-1 (Homo sapiens, UniProt O15530)

>  <assayResult>
878

$$$$
>  <givenSmiles>
COc1cc2c(cc1OCCC(C)C)ncc1c(N)nc3c(C)c(N)ccc3c12

>  <targetOrTestSystem>
PDK-1 (Homo sapiens, UniProt O15530)

>  <assayResult>
1180

$$$$
